target under test: T1, human MSLN-FL-his protein (human, UniProt Q13421 296-580)
T1 construct: made in HEK293E cells, purified on nickel column; also called hMSLN-FL-his; human MSLN full-length protein; not shown: His tag
T1 sequence (Q13421 other isoform, or with tags, fused parts or gaps): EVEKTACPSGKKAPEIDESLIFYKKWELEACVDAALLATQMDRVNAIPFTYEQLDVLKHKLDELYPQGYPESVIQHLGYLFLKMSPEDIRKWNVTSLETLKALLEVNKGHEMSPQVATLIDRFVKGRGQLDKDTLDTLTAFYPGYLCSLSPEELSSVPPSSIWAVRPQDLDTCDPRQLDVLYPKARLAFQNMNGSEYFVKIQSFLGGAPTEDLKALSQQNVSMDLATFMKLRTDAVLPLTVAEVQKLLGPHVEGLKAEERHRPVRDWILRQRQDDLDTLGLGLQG
procedure summary: SPR (Biacore), antibody captured on Protein A chip;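 also: flow cell at 25 °C, antigen injected for 240 s at five concentrations from 200 nM downward, dissociation followed up to 600 s, double-referenced, fitted with Langmuir 1:1 model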
Kd by entry:
Lab book: enter the figure in nM, no units written.

Past entries and their recorded results:
S009-F7.2.3 (antibody, human IgG1, kappa, V domains shown, human-murine chimeric antibody, human IgG1/kappa constant regions) VH: ELQLVESGGDLVKPGGSLKLSCAASGFTFSSNGMSWLRQTPDKRLEWVATISSGGRYTYYPDSVKGRFTISRDNAKNTLYLQMSSLKSEDTAMYYCARRGIYDYFDCWGQGTTLTVSS VL: DIQMTQSPASLSISVGETVTITCRASENIHSSLAWYQQKQGKSPQLLVYAATNLADGVPSRFSGSGSGSQYSLKINSLQSEDFGTYYCQHFWGTPWTFGGGTKLDIKR    13.2
S009-F7.66.12 (antibody, human IgG1, kappa, V domains shown, human-murine chimeric antibody, human IgG1/kappa constant regions) VH: QIPLQQSGPELVKPGASVRISCKASDYAFSSSWMNWVKQRPEKGLEWIGRIFVESGNTHYNDKFNGKATLTADKSSRTAYIQLSSLTSEDSAVYFCTRENIFYHGHSSWFAYWGQGTLVTVSA VL: DIVLTQSPASLVVSLGQRATISCRAGESVDDFGISYVHWYQQKPGQPPKLLIYRAANLESGIPARFSGSGSRTDFTLTINPVETDDVAIYYCQQNNKDPFTFGSGTKLEIKR    13.1

With those in mind, consider the next binder.
Prompt line: What does the data say about its Kd? Entry: S009-F7.67.12 (antibody, human IgG1, kappa, V domains shown, human-murine chimeric antibody, human IgG1/kappa constant regions) VH: QVQLQQPGTELVKPGASVRLSCRASGYSFSSYWMHWVKQRPGQGLEWLGNINPTTGDINYNEKFRNRATLAVDKSSTTAYLQLTSLTSEDSAVYFCVRHDGFLWGQGTTLTVSS VL: DIQMTQSPASLSASVGETVTITCRASENIYSYLAWYQQKQGKSPQLLVYYAKTLAEGVSSRFSGSGSGTQFSLKINSLQPEDFGTYYCQHQFGTPRTFGGGTKLEIRR
Response line: 0.602
